- Tested on: PKB Ser473 phosphorylation in Rat1-myr-HA-p110 beta cells
- PROCEDURE_DETAILS: Reverse protein array, PKB Ser473 phosphorylation in Rat1-myr-HA-p110 beta cells
- Format: cell-based
- PROTOCOL_CONDITIONS: Rattus norvegicus, 0.5 h, 30 minutes compound incubation, read-out: p-PKB/IC50_beta
Range-based classes on measured IC50: lower = under 10 nM, middle = from 10 nM up to 50 nM, upper = 50 nM and over

Study these solved cases before continuing.
CNc1ccc(-c2ccc3ncc4c(c3c2)n(-c2ccc(OC)nc2C)c(=O)n4C)cn1 = middle
Cc1ncccc1-n1c(=O)n(C)c2cnc3ccc(-c4cncc(N5CCC5)c4)cc3c21 = middle

Consider `CNc1ncc(-c2ccc3ncc4c(c3c2)n(-c2ccc(OC)nc2Cl)c(=O)n4C)cn1` . To which IC50 class does it belong?
lower

Exam item: assign `CNc1ccc(-c2ccc3ncc4c(c3c2)n(-c2ccc(F)nc2C)c(=O)n4C)cn1` to the correct category.
lower

Which bin should I file `CCNc1cc(-c2ccc3ncc4c(c3c2)n(-c2ccc(N3CC[C@H](O)C3)nc2C)c(=O)n4C)cnc1CO` under?
middle

Class? Entry: `CNc1ncc(-c2ccc3ncc4c(c3c2)n(-c2ccc(OCCOC)nc2C)c(=O)n4C)cn1`
middle

Which category does the recorded IC50 put `Cc1nc(N2CCN(C)C(=O)C2)ccc1-n1c(=O)n(C)c2cnc3ccc(-c4cnc(N)c(C(F)(F)F)c4)cc3c21` in?
lower

Exercise: read the entry `CN(C)c1ccc(-c2ccc3ncc4c(c3c2)n(-c2cccnc2)c(=O)n4C)cn1` and state which class it falls under.
upper

Which category does the recorded IC50 put `COCCOc1cc(-c2ccc3ncc4c(c3c2)n(-c2ccc(OC)nc2OC)c(=O)n4C)cnc1C` in?
middle

Looking at `CNc1ccc(-c2ccc3ncc4c(c3c2)n(-c2ccc(OCCOC)nc2C)c(=O)n4C)cn1` , which class would you pick?
lower

###

Recorded pIC50 by entry
- Test system: PKB Ser473 phosphorylation in Rat1-myr-HA-p110 beta cells
- PROCEDURE_DETAILS: Reverse protein array, PKB Ser473 phosphorylation in Rat1-myr-HA-p110 beta cells
- Assay type: cell-based
- PROTOCOL_CONDITIONS: Rattus norvegicus, 0.5 h, 30 minutes compound incubation, read-out: p-PKB/IC50_beta
Note on units: pIC50 is unitless, being -log10 of a concentration expressed in mol/L.

Examples with their reported pIC50 follow.
Cc1ncccc1-n1c(=O)n(C)c2cnc3ccc(-c4cnc(N)c(C(F)(F)F)c4)cc3c21 [Example 2.11] = 8.00
CCNc1cc(-c2ccc3ncc4c(c3c2)n(-c2cccnc2C)c(=O)n4C)cnc1CO [Example 2.31] = 8.24
CCOc1ccc(-c2ccc3ncc4c(c3c2)n(-c2cccnc2OC)c(=O)n4C)cn1 [Example 1.5] = 7.41

Now consider a different compound.
Param item = COc1ncc(-c2ccc3ncc4c(c3c2)n(-c2ccc(N3CC[C@H](O)C3)nc2C)c(=O)n4C)c(OC)n1 [Example 32.3] ; retrieve measured pIC50.
7.10

###

- SYSTEM: PI3K beta (Homo sapiens)
- Construct: for the full-length p110-b subunit are generated and fused by overlapping PCR; His tag (C); made in house; host or cells: baculovirus BV949; Tn5 (Trichoplusia ni) or TiniPro insect cells
- PROCEDURE_DETAILS: PI3K beta kinase assay (Kinase-Glo luminescence)
- Type: biochemical
- PROTOCOL_CONDITIONS: read-out: PI3Kbeta/IC50
MEASUREMENT_NAME: pIC50
Reminder that pIC50 means the negative base-10 logarithm of the concentration expressed in mol/L.

These solved cases illustrate the format of a correct answer.
CCOc1ccc(-c2ccc3ncc4c(c3c2)n(-c2ccc(N3CCNCC3)nc2OC)c(=O)n4C)cn1 = 6.57
CCOc1ccc(-c2ccc3ncc4c(c3c2)n(-c2cccnc2C)c(=O)n4C)cn1 = 6.24
Cc1nc(F)ccc1-n1c(=O)n(C)c2cnc3ccc(-c4cnc5c(ccn5C)c4)cc3c21 = 6.51
COc1ncccc1-n1c(=O)n(C)c2cnc3ccc(-c4ccc(C(N)=O)cc4)cc3c21 = 6.31
Cc1ncccc1-n1c(=O)n(C)c2cnc3ccc(-c4cnc(N)c(C(F)(F)F)c4)cc3c21 = 7.85

Which value of pIC50 has been reported for `Cc1cccnc1-n1c(=O)n(C)c2cnc3ccc(-c4cnc(N)c(C(F)(F)F)c4)cc3c21` in the records?
6.96

Any idea what pIC50 was measured for `Cc1ncccc1-n1c(=O)n(C)c2cnc3ccc(-c4cnc(N(C)C)nc4)cc3c21` ?
6.44

###

IC50 by entry:
- SYSTEM: PI3K delta (Homo sapiens)
- Construct: for the full-length p110-d subunit are generated and fused by overlapping PCR; His tag (C); made in house; host or cells: baculovirus BV1060; Tn5 (Trichoplusia ni) or TiniPro insect cells
- Sequence (O00329 with tags, fused parts or gaps limits assumed): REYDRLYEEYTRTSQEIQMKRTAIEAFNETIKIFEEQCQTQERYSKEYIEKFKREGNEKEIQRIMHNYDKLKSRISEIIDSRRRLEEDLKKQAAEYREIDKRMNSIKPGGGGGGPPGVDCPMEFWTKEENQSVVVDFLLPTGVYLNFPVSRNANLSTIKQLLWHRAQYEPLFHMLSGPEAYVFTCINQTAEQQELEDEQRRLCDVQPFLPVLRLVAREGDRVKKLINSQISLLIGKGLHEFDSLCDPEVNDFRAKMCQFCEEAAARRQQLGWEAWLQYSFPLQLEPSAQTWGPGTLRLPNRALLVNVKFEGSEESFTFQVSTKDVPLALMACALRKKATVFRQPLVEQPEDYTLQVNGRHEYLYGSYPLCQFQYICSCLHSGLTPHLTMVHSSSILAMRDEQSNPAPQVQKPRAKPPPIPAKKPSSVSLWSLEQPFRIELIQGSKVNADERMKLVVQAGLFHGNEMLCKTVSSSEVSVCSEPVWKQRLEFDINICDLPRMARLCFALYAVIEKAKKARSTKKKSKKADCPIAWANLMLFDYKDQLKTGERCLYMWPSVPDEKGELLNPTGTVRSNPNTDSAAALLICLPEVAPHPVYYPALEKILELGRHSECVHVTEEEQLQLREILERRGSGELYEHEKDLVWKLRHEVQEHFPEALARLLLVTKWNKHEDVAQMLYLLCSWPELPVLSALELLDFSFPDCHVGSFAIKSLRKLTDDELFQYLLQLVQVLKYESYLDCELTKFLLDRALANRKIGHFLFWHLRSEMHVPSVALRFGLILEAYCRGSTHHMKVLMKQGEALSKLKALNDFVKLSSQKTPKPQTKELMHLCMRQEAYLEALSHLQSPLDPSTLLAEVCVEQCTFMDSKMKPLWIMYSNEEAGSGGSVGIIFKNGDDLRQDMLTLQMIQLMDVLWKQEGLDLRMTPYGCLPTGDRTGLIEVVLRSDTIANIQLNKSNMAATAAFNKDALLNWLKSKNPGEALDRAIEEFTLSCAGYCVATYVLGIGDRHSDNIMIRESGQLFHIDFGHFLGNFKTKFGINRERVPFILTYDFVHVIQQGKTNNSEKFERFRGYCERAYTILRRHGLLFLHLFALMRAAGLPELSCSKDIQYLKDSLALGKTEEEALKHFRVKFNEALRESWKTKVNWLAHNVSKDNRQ
- PROCEDURE_DETAILS: PI3K delta kinase assay (Kinase-Glo luminescence)
- Type: biochemical
- PROTOCOL_CONDITIONS: read-out: EPK_PI3Kdelta/IC50
Write down the numeric answer in nM and omit the unit.

Cc1nc(F)ccc1-n1c(=O)n(C)c2cnc3ccc(-c4cncc(N5CCC5)c4)cc3c21 = 148
CNc1ncc(-c2ccc3ncc4c(c3c2)n(-c2ccc(N3CC(O)C3)nc2C)c(=O)n4C)cc1C(F)(F)F = 13
CCNc1ncc(-c2ccc3ncc4c(c3c2)n(-c2ccc(N3CC[C@H](O)C3)nc2C)c(=O)n4C)c(OC)n1 = 21
CCNc1ncc(-c2ccc3ncc4c(c3c2)n(-c2ccc(N3CC(O)C3)nc2C)c(=O)n4C)cn1 = 24
Cc1nc(F)ccc1-n1c(=O)n(C)c2cnc3ccc(-c4cncc(N)c4)cc3c21 = 56.5

Look up IC50: `Cc1nc(N2CC(O)C2)ccc1-n1c(=O)n(C)c2cnc3ccc(-c4cncc(C(C)(C)O)c4)cc3c21`
19

Consider the compound shown here: `CNc1cc(-c2ccc3ncc4c(c3c2)n(-c2ccc(F)nc2C)c(=O)n4C)cnc1CO` What is its recorded IC50?
26

###

Recorded measurements of log10 of IC50, one per entry
- SYSTEM: PI3K beta (Homo sapiens, UniProt P42338)
- Construct: for the full-length p110-b subunit are generated and fused by overlapping PCR; His tag (C); made in house; host or cells: baculovirus BV949; Tn5 (Trichoplusia ni) or TiniPro insect cells
- Sequence (P42338 with tags, fused parts or gaps limits assumed): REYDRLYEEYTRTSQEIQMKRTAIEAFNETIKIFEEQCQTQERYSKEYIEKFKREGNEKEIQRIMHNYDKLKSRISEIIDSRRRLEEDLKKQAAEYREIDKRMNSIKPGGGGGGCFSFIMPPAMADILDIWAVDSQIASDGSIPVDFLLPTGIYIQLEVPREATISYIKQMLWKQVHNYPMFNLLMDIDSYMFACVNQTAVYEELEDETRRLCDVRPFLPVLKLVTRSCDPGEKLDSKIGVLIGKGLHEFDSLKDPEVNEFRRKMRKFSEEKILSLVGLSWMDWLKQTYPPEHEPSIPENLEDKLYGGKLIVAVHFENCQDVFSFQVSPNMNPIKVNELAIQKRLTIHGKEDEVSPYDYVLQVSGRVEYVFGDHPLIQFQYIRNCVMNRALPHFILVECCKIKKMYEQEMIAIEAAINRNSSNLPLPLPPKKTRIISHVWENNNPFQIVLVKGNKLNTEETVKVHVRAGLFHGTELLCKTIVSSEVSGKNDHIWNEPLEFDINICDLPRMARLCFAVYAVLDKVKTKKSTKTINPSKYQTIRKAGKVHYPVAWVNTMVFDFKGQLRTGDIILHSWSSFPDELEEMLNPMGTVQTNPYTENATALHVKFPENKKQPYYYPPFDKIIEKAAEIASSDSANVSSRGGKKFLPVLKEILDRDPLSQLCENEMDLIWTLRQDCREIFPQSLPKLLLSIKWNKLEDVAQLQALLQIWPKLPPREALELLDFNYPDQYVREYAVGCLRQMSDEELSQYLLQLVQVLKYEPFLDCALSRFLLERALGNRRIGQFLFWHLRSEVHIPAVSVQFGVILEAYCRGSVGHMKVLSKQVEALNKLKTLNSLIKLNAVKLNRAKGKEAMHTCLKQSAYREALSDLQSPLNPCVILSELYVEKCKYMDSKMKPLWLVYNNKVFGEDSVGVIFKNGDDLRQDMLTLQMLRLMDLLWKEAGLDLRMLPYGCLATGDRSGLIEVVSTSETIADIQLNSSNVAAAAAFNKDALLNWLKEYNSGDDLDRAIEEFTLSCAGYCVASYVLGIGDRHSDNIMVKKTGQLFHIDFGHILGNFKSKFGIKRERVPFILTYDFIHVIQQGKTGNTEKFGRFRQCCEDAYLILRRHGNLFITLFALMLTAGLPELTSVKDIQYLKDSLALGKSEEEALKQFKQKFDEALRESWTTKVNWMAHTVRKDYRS
- PROCEDURE_DETAILS: PI3K beta kinase assay (Kinase-Glo luminescence)
- Format: biochemical
- PROTOCOL_CONDITIONS: read-out: EPK_PI3Kbeta/IC50
Please be aware that the numbers have been log10-transformed from IC50 in nM.

Take a look at these entries with their results.
COCCN(C)c1ccc(-n2c(=O)n(C)c3cnc4ccc(-c5cncc(N)c5)cc4c32)c(C)n1 [Example 15.8] = 1.99
CNc1ncc(-c2ccc3ncc4c(c3c2)n(-c2ccc(N3CC(O)C3)nc2C)c(=O)n4C)cc1F [Example 29.3] = 2.48
Cc1nc(N2CCN(C)C(=O)C2)ccc1-n1c(=O)n(C)c2cnc3ccc(-c4cnc(N)c(C(F)(F)F)c4)cc3c21 [Example 21.1] = 0.95
COc1cc(-c2ccc3ncc4c(c3c2)n(-c2ccc(N)nc2C)c(=O)n4C)cnc1CO [Example 30.1] = 2.63
COCc1ncc(-c2ccc3ncc4c(c3c2)n(-c2ccc(N3CCC3)nc2C)c(=O)n4C)cc1OC [Example 23.6] = 2.55

# input compound: COCC(=O)Nc1ccc(-n2c(=O)n(C)c3cnc4ccc(-c5cncc(N)c5)cc4c32)c(C)n1 [Example 20.1] ; wanted: its log10 of IC50
1.58

What value of measured log10 of IC50 is listed for CNc1ccc(-c2ccc3ncc4c(c3c2)n(-c2ccc(OCCOC)nc2C)c(=O)n4C)cn1 [Example 13.3] ?
2.70

###

Listing: IC50 of selected compounds
- SYSTEM: mTOR (Homo sapiens, UniProt P42345)
- Construct: purchased Invitrogen Corporation (Carlsbad/Calif., USA) PV4753
- Sequence (P42345 1360-2549 limits assumed): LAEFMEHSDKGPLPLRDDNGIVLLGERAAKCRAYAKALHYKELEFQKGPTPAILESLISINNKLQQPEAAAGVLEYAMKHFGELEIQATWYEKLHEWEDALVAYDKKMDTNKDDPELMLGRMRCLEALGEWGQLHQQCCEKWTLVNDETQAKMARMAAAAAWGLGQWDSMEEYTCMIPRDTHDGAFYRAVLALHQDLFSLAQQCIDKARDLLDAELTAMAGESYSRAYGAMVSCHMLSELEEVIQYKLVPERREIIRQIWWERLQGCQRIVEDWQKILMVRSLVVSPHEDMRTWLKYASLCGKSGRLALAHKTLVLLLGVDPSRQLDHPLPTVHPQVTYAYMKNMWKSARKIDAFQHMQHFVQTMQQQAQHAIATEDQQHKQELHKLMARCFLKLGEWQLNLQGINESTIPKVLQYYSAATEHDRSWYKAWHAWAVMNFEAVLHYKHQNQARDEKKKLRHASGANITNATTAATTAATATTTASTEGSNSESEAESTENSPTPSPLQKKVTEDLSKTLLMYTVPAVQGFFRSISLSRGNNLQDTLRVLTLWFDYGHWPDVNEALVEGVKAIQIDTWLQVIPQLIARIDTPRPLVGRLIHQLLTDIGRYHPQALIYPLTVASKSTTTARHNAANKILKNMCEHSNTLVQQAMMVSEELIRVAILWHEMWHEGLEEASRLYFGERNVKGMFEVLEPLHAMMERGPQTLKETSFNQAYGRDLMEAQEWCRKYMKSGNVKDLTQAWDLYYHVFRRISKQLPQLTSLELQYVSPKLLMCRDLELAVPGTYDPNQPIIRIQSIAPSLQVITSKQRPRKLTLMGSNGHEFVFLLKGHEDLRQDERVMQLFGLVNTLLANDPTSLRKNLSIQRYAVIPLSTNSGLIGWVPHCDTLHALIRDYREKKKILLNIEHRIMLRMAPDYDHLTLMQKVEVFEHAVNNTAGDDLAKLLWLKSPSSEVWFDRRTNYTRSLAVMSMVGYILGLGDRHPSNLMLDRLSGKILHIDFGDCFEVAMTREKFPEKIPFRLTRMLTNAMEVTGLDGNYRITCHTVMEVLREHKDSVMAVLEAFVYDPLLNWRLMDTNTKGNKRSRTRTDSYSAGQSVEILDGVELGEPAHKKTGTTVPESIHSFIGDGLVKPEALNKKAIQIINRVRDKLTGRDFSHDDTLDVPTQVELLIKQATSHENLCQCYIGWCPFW
- PROCEDURE_DETAILS: Biochemical assay for m-TOR by TR-FRET
- PROTOCOL_CONDITIONS: read-out: EPK_mTOR/IC50
Supply the numeric figure in nM, leaving out any unit text.

Requested field: IC50. Item: `Cc1ccc(-n2c(=O)n(C)c3cnc4ccc(-c5cnc(N(C)C)nc5)cc4c32)c(C)n1`
48

Item under review: `CNc1ncc(-c2ccc3ncc4c(c3c2)n(-c2ccc(C(C)(C)O)nc2C)c(=O)n4C)cc1F` . Reported IC50?
21

So what's the measured IC50 for this one? `CCNc1ncc(-c2ccc3ncc4c(c3c2)n(-c2ccc(N3CC[C@H](O)C3)nc2C)c(=O)n4C)cn1`
15

###

- PROCEDURE_DETAILS: Parallel Artificial Membrane Permeability Assay (PAMPA) at pH 6.8
- Assay type: physicochemical
MEASUREMENT_NAME: HT-Perm logPe pH6.8
Could you keep your reply to the number by itself?

Reference set (3 entries):
COCCOc1ccc(-n2c(=O)n(C)c3cnc4ccc(-c5cnc(N)c(C(F)(F)F)c5)cc4c32)c(C)n1 [Example 13.2] = −3.7
COc1ncc(-c2ccc3ncc4c(c3c2)n(-c2ccc(C(C)(C)O)nc2C)c(=O)n4C)c(OC)n1 [Example 31.3] = −4.1
Cc1ncccc1-n1c(=O)n(C)c2cnc3ccc(-c4cncc(N)c4)cc3c21 [Example 2.25] = −7.7

Continue with the next compound.
I have this compound here, CCNc1cc(-c2ccc3ncc4c(c3c2)n(-c2ccc(OC)nc2Cl)c(=O)n4C)cnc1C [Example 18.1] , and I need its recorded HT-Perm logPe pH6.8.
−3.6
